Lab note - cut at 200 °C for melting point: 1.0 if strictly below, 0.0 if not.

CC(=O)NCCSC(C)=O = 1.0
O=C1C(c2ccccc2)=Nc2cc([N+](=O)[O-])ccc21 = 1.0
Oc1ncc(O)c(O)n1 = 0.0

Quick check: does "Cn1cnc(N)c2ncnc1-2" have melting point under 200 °C?
0.0

###

VALUE_KIND: melting point (°C)
Reply numerically in °C, unit not repeated.

// below: answered compounds
Fc1cc(Br)ccc1CBr = 35
Oc1cc(Cl)cnc1O = 295
COc1cc(O)c2c(=O)c3cc(O)ccc3oc2c1 = 266
O=C1C=CC(=O)c2c(Cl)cccc21 = 163
CCCc1cccc(C)c1 = -82.5

Query "CCOc1ccc(NC(=O)OC(C)C)cc1OCC" yields melting point of 100

###

VALUE_KIND: melting point (°C)
Reply numerically in °C, unit not repeated.

Query COC(=O)N(C(=O)N1COC2(C(=O)OC)Cc3cc(Cl)ccc3C2=N1)c1ccc(OC(F)(F)F)cc1 (stereo unspecified) yields melting point of 88.1

###

Lab note - cut at 200 °C for melting point: Fulfilled if strictly below, Not fulfilled if not.

O=Cc1cc(F)ccc1O = Fulfilled
O=c1[nH]c(=O)n(C2CCCO2)cc1F (configuration not stated) = Fulfilled
COc1ccc(C=NC2=NC(C(F)(F)F)N=N2)cc1 (configuration not stated) = Fulfilled

Quick check: does "CCCCC(CC)CC" have melting point under 200 °C?
Fulfilled

Quick check: does "O=[N+]([O-])c1ccc(-c2ccc(-c3ccc([N+](=O)[O-])cc3)cc2)cc1" have melting point under 200 °C?
Not fulfilled

###

VALUE_KIND: melting point (°C)
Reply numerically in °C, unit not repeated.

// below: answered molecules
CCCCCCCCCCCCCCCCC(=O)OC = 30
Cc1c(-c2ccccc2)oc(-c2ccccc2)c(C)c1=O = 144
CC(C)(C)N(NC(=O)c1ccccc1)C(=O)c1ccccc1 = 178

Query "N=C(N)c1ccc(N)cc1" yields melting point of 182

Query CCOC(=O)C1=NN(c2ccc(Cl)cc2Cl)C(C)(C(=O)OCC)C1 (configuration not stated) yields melting point of 51

Query "CCO[Si](Cl)(Cl)OCC" yields melting point of -130

Query "CC(C)(C)OC(=O)NN" yields melting point of 39

Query "CC(=O)Nc1ccc(Br)cc1F" yields melting point of 156

Query "FC(F)(F)S(F)(F)(F)(F)F" yields melting point of -87

Query "Cc1ccccc1NC(N)=S" yields melting point of 162

###

melting point reference
Reply numerically in °C, unit not repeated.

Query "O=C1OCCO1" yields melting point of 39.5

Query "C1CCSSC1" yields melting point of 32.5

Query Nc1ncnc2c1ncn2C1OC(CO)C(OP(=O)(O)O)C1O (stereo not drawn) yields melting point of 197

Query CC(=O)OC1CCC2(C)C(C1)CC1(OCCO1)C1C3CCC(=O)C3(C)CCC12 (stereo not drawn) yields melting point of 240

Query "CC(=O)c1ccc(-c2c(Cl)cc(Cl)cc2Cl)o1" yields melting point of 108

Query "Oc1ccccc1[C@H]1C[C@H](c2ccccc2)Sc2ccccc2N1" yields melting point of 89.8

Query "N#Cc1ccc(Cl)cc1F" yields melting point of 60

###

Lab note - cut at -10 °C for melting point: yes if strictly below, no if not.

Nc1c(F)cc(O)cc1F = no
Clc1ccc(-c2cc(Cl)c(Cl)c(Cl)c2Cl)cc1 = no
O=C(O)c1cc(C(=O)O)cc(C(=O)O)c1 = no
CCC(CC)C(=O)O = yes

Quick check: does "CCCCCCc1ccccc1" have melting point under -10 °C?
yes

Quick check: does "FC(F)(F)C(F)(F)C(F)(F)C(F)(F)C(F)(F)C(F)(F)OC(F)(F)C(F)(F)C(F)(F)C(F)(F)C(F)(F)C(F)(F)F" have melting point under -10 °C?
yes
